# assay.system: wild type HOIP RBR domain (Homo sapiens)
# Sequence (Q96EP0 697-1072): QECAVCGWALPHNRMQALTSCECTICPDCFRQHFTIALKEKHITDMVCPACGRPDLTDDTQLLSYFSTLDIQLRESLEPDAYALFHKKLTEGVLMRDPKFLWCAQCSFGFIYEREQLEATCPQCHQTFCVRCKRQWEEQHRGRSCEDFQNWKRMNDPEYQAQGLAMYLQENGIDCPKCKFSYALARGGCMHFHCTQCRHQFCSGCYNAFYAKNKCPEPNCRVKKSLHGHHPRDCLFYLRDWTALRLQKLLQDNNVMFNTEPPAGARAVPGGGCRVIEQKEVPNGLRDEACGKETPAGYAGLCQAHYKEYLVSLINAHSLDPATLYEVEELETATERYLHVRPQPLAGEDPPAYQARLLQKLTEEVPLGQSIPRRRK
# assay.summary: Protein LC-MS kinetics of covalent labeling
# condition.details: lower limit; kobs linear across range tested
pKd: −log10 of the molar value.
readout.name: pKd

Lookup: pKd / wild type HOIP RBR domain (Homo sapiens) / COC(=O)/C=C/CNC(=O)c1cc2c([nH]c1=O)CCC2
< 3.40

###

# assay.system: IRAK4 (Homo sapiens)
# Construct: recombinant full length IRAK4-FLAG; His6 (with the rest of the FlagHisAvi vector tag) (C, cleaved yes)
# Sequence (Q9NWZ3 whole entry): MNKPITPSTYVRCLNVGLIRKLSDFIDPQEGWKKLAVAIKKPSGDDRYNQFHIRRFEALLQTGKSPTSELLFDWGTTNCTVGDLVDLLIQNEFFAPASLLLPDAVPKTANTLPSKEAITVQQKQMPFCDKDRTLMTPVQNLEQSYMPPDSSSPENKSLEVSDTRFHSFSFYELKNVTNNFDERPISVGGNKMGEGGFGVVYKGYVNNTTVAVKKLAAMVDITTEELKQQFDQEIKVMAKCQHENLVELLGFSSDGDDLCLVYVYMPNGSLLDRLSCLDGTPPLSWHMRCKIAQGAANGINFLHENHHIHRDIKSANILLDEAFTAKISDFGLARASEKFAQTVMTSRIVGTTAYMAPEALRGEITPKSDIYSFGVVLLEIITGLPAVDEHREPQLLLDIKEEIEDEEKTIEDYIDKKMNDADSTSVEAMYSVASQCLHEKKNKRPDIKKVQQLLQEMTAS
# assay.summary: IMAP-FP IRAK4 substrate phosphorylation assay
# condition.details: 1 h preincubation, 6 nM IRAK4, 50 μM ATP
readout.name: IC50

Query (compound): COC(=O)/C=C/CNC(=O)c1cc2c([nH]c1=O)CCCC2 [Compound 11a] ; field requested: IC50
> 200 µM

Taken from paper PMC6383986.
